Reported T/C values for the following compounds.
test system: P388 leukemia ip, CD2F1 mice, survival T/C; assay: NCI In Vivo Anticancer Drug Screen. Data for tumor model P388 Leukemia (intraperitoneal) in CD2F1 (CDF1) mice; details: endpoint: median survival time; dose: 100.0 mg/kg/injection; schedule: Q01DX001 (ip); vehicle: saline with Tween-80; higher = longer survival
Inconclusive results and toxic doses are left out.

                                   compound                              study_system  quantity_name    endpoint_value
0               c1ccc(C2SCC3(CCCCC3)CS2)cc1  P388 leukemia ip, CD2F1 mice, survival T/C            T/C  101 % of control
1       Clc1ccc2c(c1)C1CN(C2)Cc2ccc(Cl)cc21  P388 leukemia ip, CD2F1 mice, survival T/C            T/C  101 % of control
2  C=CC1(C)OC(=O)c2cc(C)c(OC)cc21 (configuration not stated)  P388 leukemia ip, CD2F1 mice, survival T/C            T/C  100 % of control

(Q) Which measured T/C belongs to CC(=O)OC1CCC2(C)C(=CCC3C2CCC2(C)C3CC3C(c4ccccc4)=NC(c4ccccc4)C32C(C)=O)C1 (configuration not stated) , tested on P388 leukemia ip, CD2F1 mice, survival T/C?
(A) 93 % of control

(Q) Which measured T/C belongs to "Cc1ccc2ccccc2c1NS(=O)(=O)c1ccccc1" , tested on P388 leukemia ip, CD2F1 mice, survival T/C?
(A) 95 % of control

(Q) Which measured T/C belongs to "CC(=O)N(C)OS(=O)(=O)c1ccc(C)cc1" , tested on P388 leukemia ip, CD2F1 mice, survival T/C?
(A) 105 % of control

(Q) Which measured T/C belongs to O=C1C(CO)NC(=S)N1c1ccccc1 (configuration not stated) , tested on P388 leukemia ip, CD2F1 mice, survival T/C?
(A) 105 % of control

(Q) Which measured T/C belongs to CC12CC(CC1=O)CC2S(=O)(=O)O (configuration not stated) , tested on P388 leukemia ip, CD2F1 mice, survival T/C?
(A) 96 % of control

(Q) Which measured T/C belongs to "COn1nnc2ccc([N+](=O)[O-])cc21" , tested on P388 leukemia ip, CD2F1 mice, survival T/C?
(A) 101 % of control

(Q) Which measured T/C belongs to "CC(=O)N(C(C)=O)c1cnc2c(nc3cc(C)ccn32)c1C" , tested on P388 leukemia ip, CD2F1 mice, survival T/C?
(A) 92 % of control

(Q) Which measured T/C belongs to "CC(=O)N(c1ccccc1)[Si](C)(C)C" , tested on P388 leukemia ip, CD2F1 mice, survival T/C?
(A) 107 % of control

(Q) Which measured T/C belongs to "Cc1ccc2ncc([N+](=O)[O-])n2c1" , tested on P388 leukemia ip, CD2F1 mice, survival T/C?
(A) 97 % of control

* * *

system: P388 leukemia ip, CD2F1 mice, survival T/C; test: NCI In Vivo Anticancer Drug Screen. Data for tumor model P388 Leukemia (intraperitoneal) in CD2F1 (CDF1) mice; conditions: endpoint: median survival time; dose: 200.0 mg/kg/injection; schedule: Q04DX002 (ip); vehicle: saline with Tween-80; higher = longer survival
Toxic doses and inconclusive results are not listed.
quantity name: T/C

These recorded examples may help you get a feel for the data.
>>> print(df.to_string())
                                   compound                              study_system    endpoint_value
0  CCOC(=O)C(C(=O)OCC)C1(O)C2CCCC21 (centres undefined)  P388 leukemia ip, CD2F1 mice, survival T/C  101 % of control
1  Cc1cc(OCc2nnc3n2S(=O)(=O)c2ccccc2N3c2ccccc2)ccc1Cl  P388 leukemia ip, CD2F1 mice, survival T/C   92 % of control
2  C=C(C1OC2OC(C)(C)OC2C1OC)P(=O)(OC(C)C)OC(C)C (centres undefined)  P388 leukemia ip, CD2F1 mice, survival T/C   98 % of control
3  CCOC(=O)C(c1ccccc1)C(CC=C(C)C)(C(C)=O)C(=O)OC (centres undefined)  P388 leukemia ip, CD2F1 mice, survival T/C  103 % of control
4                     c1ccc(CSC2=NCCCC2)cc1  P388 leukemia ip, CD2F1 mice, survival T/C  105 % of control

(Q) I would be grateful if you could share the reported T/C for CC1CNC2(c3ccccc3)CSC=C(c3ccccc3)N12 (centres undefined) .
(A) 101 % of control

(Q) I would be grateful if you could share the reported T/C for "CCN1C(=O)C(=NO)C(=O)N(CC)C1=S.CCN1C(=O)C(=N[O-])C(=O)N(CC)C1=S.CCN1C(=O)C(=N[O-])C(=O)N(CC)C1=S.[Fe+3]" .
(A) 102 % of control

(Q) I would be grateful if you could share the reported T/C for "Clc1nc2nc(Cl)c(Cl)n2c(Cl)c1Cl" .
(A) 117 % of control

(Q) I would be grateful if you could share the reported T/C for CCOC(=O)C1=CNN=CC12C(=O)C(C(=O)OCC)CC2C(=O)OCC (centres undefined) .
(A) 93 % of control

* * *

system: P388 leukemia ip, CD2F1 mice, survival T/C; experiment: NCI In Vivo Anticancer Drug Screen. Data for tumor model P388 Leukemia (intraperitoneal) in CD2F1 (CDF1) mice; details: endpoint: median survival time; dose: 25.0 mg/kg/injection; schedule: Q01DX005 (ip); vehicle: Klucel (hydroxypropylcellulose) (HPC); higher = longer survival
Toxic doses and inconclusive results are not listed.
Reported T/C values for the following compounds.

These recorded examples may help you get a feel for the data.
>>> df
                                   compound    endpoint_value
0  O=C(CNNC(=O)c1ccncc1)Nc1ccc(S(=O)(=O)c2ccc(NC(=O)CNNC(=O)c3ccncc3)cc2)cc1   89 % of control
1  Cc1ccc(S(=O)(=O)OC2CN(C)CC=C2c2ccccc2)cc1 (stereo unspecified)  104 % of control
2  CCN(CC)CCOC(=O)Cc1ccc2c(=O)cc(-c3ccc(C)cc3)oc2c1  108 % of control
3             C[CH2][Sn]1([Cl])[O]CCNCC[O]1  103 % of control

(Q) I would be grateful if you could share the reported T/C for "CC(=C/c1cc(C)cc(=O)o1)/C=C/c1ccc(C)c(C)c1C" .
(A) 97 % of control

(Q) I would be grateful if you could share the reported T/C for "CCN(CC)CCN(C(=O)C1c2ccccc2Oc2ccccc21)c1ccccc1" .
(A) 100 % of control

(Q) I would be grateful if you could share the reported T/C for "Cc1c2ccncc2c(O)c2c3ccccc3n(C)c12" .
(A) 110 % of control

(Q) I would be grateful if you could share the reported T/C for "CCN(CC)CCOC12CC3CC(CC(C3)C1)C2" .
(A) 101 % of control

(Q) I would be grateful if you could share the reported T/C for "O=C1OCCC(O)=C1C=Nc1ccccc1" .
(A) 117 % of control

(Q) I would be grateful if you could share the reported T/C for "[Cl][Zn][Cl].c1ccc2[nH]cnc2c1.c1ccc2[nH]cnc2c1" .
(A) 108 % of control

(Q) I would be grateful if you could share the reported T/C for CCC1C2Cc3ccc(O)cc3C1(C)CCN2C (stereo unspecified) .
(A) 99 % of control

* * *

test system: P388 leukemia ip, CD2F1 mice, survival T/C; assay: NCI In Vivo Anticancer Drug Screen. Data for tumor model P388 Leukemia (intraperitoneal) in CD2F1 (CDF1) mice; conditions: endpoint: median survival time; dose: 50.0 mg/kg/injection; schedule: Q01DX005 (ip); vehicle: Klucel (hydroxypropylcellulose) (HPC); higher = longer survival
Inconclusive results and toxic doses are left out.
quantity name: T/C

In [3]: df
Out[3]:
                                   molecule    endpoint_value
0  C/C(=C\c1ccc([N+](=O)[O-])cc1)C(=O)N1CCCCC1  105 % of control
1      COc1cc(OC)c2c(c1)Oc1cc(OC)cc(OC)c1C2   97 % of control
2  COc1ccc2c(c1OC)C1=NCCc3cc4c(cc3C1(OC)C2=O)OCO4 (stereo not drawn)   99 % of control

(Q) I would be grateful if you could share the reported T/C for CCOC(=O)C(C#N)C(c1ccc2c(c1)OCO2)N(CCO)CCO (stereo not drawn) .
(A) 93 % of control

(Q) I would be grateful if you could share the reported T/C for "C=C(N=NNc1ccccc1)c1ccccc1" .
(A) 97 % of control

(Q) I would be grateful if you could share the reported T/C for NC(C(=O)O)C1=CCCCCC1 (stereo not drawn) .
(A) 101 % of control

(Q) I would be grateful if you could share the reported T/C for "CSC(SC)=C1C(=O)NC(=O)NC1=O" .
(A) 95 % of control

(Q) I would be grateful if you could share the reported T/C for "CC(=NCc1ccccc1)Nc1ccc(NC(=O)c2ccc(C(=O)Nc3ccc(NC(C)=NCc4ccccc4)cc3)cc2)cc1" .
(A) 95 % of control

(Q) I would be grateful if you could share the reported T/C for "Nc1c(/C=C/c2cc3cc(C4=NCCN4)ccc3o2)[nH]c2cc(C3=NCCN3)ccc12" .
(A) 245 % of control

(Q) I would be grateful if you could share the reported T/C for "Cc1ccc(C=C2c3ccccc3C(=O)c3ccccc32)cc1" .
(A) 108 % of control

(Q) I would be grateful if you could share the reported T/C for NC(CS)C(=O)[O][Sn]([O]C(=O)C(N)CS)([O]C(=O)C(N)CS)[O]C(=O)C(N)CS (stereo not drawn) .
(A) 99 % of control
